- Target or test system: T1, human Kv1.3 (huKv1.3) (Homo sapiens, UniProt P22001)
- T1 construct: host or cells: CHO
- T1 sequence (P22001 whole entry): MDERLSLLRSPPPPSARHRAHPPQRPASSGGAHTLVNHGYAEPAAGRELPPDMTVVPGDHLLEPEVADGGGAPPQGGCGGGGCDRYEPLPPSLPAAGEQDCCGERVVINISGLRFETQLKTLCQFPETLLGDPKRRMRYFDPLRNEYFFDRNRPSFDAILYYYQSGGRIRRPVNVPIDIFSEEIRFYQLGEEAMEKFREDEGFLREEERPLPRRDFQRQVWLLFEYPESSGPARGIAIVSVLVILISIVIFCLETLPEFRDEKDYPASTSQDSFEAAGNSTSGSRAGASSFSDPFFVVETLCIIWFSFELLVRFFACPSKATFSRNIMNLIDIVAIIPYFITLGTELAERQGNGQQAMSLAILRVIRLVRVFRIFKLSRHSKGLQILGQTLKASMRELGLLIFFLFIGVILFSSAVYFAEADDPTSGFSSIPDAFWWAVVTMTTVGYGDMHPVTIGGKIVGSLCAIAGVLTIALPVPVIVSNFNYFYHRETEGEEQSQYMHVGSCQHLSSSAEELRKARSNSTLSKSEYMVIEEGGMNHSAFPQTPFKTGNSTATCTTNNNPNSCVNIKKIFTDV
- Run description: QPatch automated patch-clamp, CHO cells stably expressing human Kv1.3 (Examples 19-21)
- Format: cell-based
- Stated conditions: huKv1.3, four-point curves of FIG. 32, Table E19; read-out: IC50

Molecule | IC50 [nM]
KB_A12_Odk2: OdK2 in VL CDR2 of KB_A12, IgG (antibody, V domains shown) VH: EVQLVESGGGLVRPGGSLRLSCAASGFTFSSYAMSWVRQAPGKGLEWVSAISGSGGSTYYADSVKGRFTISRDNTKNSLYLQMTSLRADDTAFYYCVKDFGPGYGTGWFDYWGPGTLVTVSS VL: QSVLTQPPSVSEAPRQRVTITCSGSSSNIGNNAVNWYQQLPGKAPKLLIYAAGRGVPTDVKCRGSPQCIQPCKDAGMRFGKCMNGKCHCTPKANSGVSDRFSAAKSGTSASLAINGLRSEDEADYYCAAWDDSLNGYVFGTGTKLTVLG | 222
KB_A12_ShK: ShK toxin in VL CDR2 of KB_A12, IgG1 (antibody, V domains shown) VH: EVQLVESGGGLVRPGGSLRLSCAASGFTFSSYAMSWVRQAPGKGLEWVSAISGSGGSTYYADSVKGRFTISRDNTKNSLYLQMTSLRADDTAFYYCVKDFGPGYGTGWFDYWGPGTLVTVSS VL: QSVLTQPPSVSEAPRQRVTITCSGSSSNIGNNAVNWYQQLPGKAPKLLIYAAGRRSCIDTIPKSRCTAFQCKHSMKYRLSFCRKTCGTCANSGVSDRFSAAKSGTSASLAINGLRSEDEADYYCAAWDDSLNGYVFGTGTKLTVLG | 8.6
KB_A07_HsTx1 (antibody, V domains shown) VH: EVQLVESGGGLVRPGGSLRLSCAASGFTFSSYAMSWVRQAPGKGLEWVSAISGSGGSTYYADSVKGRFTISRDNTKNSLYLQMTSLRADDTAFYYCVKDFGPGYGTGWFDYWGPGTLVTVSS VL: DIQMTQSPSSLSASVGDRVTITCRASQSISSYLNWYQQKPGKAPKLLIYAAGVASCRTPKDCADPCRKETGCPYGKCMNRKCKCNRCSRSGVPSRFSGSGSGTDFTLTISSLQPEDFATYYCQQGASPPYTFGQGTKVEIKR | 4.7
KB_A12_ADWX1: ADWX-1 in VL CDR2 of KB_A12, IgG (antibody, V domains shown) VH: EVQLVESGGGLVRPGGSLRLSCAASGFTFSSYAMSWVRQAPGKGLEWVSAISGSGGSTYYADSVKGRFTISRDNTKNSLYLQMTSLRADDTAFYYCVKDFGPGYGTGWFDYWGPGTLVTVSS VL: QSVLTQPPSVSEAPRQRVTITCSGSSSNIGNNAVNWYQQLPGKAPKLLIYAAGRVGINVKCKHSRQCLKPCKDAGMRFGKCTNGKCHCTPKANSGVSDRFSAAKSGTSASLAINGLRSEDEADYYCAAWDDSLNGYVFGTGTKLTVLG | 270
KB_A12_KTX: kaliotoxin in VL CDR2 of KB_A12, IgG1 (antibody) VH: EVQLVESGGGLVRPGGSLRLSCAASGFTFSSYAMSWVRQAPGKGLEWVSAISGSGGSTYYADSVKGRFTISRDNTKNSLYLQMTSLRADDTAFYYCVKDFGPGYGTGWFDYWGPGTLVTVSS VL: QSVLTQPPSVSEAPRQRVTITCSGSSSNIGNNAVNWYQQLPGKAPKLLIYAAGRGVEINVKCSGSPQCLKPCKDAGMRFGKCMNRKCHCTPKANSGVSDRFSAAKSGTSASLAINGLRSEDEADYYCAAWDDSLNGYVFGTGTKLTVLGQP | 430
